tested_system: PIK3CD (Human) (UniProt O00329)
Sequence (O00329 whole entry, looked up): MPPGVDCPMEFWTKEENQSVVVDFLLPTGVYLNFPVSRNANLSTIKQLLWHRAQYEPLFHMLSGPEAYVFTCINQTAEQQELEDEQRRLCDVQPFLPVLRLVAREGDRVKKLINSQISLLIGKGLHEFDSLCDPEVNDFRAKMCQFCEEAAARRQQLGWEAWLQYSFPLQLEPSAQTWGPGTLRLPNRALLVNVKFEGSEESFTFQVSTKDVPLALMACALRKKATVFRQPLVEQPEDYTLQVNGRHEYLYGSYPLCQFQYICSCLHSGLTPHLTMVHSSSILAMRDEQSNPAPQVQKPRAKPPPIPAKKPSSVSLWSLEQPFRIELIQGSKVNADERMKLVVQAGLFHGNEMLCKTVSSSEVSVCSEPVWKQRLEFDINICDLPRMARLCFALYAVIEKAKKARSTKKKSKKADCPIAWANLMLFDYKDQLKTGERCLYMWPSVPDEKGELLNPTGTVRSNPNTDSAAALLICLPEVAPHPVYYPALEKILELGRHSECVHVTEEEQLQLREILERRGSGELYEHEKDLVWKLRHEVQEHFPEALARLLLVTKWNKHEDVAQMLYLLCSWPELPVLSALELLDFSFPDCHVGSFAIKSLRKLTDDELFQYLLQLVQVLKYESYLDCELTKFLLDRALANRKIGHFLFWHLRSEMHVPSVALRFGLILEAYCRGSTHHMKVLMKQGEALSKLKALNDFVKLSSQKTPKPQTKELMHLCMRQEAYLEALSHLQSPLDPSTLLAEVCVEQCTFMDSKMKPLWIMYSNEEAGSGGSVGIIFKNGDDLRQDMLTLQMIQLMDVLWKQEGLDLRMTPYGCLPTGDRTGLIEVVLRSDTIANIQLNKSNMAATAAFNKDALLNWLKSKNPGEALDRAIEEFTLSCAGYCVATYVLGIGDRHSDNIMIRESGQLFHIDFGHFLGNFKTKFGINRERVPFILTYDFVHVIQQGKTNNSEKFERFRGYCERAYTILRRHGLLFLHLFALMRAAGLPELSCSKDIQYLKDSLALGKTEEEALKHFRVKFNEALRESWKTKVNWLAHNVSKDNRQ
Rule: measured IC50 below 70 nM gets 1; anything equal to or greater than 70 nM gets -1.

Past entries and their recorded results:
mol_smiles: CCn1c(-c2cnc(C)nc2)nc2c(O[C@H]3CC[C@@H](NC(=O)C4CC4)CC3)ncnc21
tested_system: PIK3CD (Human) (UniProt O00329)
label: -1
//
mol_smiles: CCn1c(N2CCC(c3ccccc3)CC2)nc2c(O[C@H]3CCN(C(=O)OC(C)(C)C)C3)ncnc21
tested_system: PIK3CD (Human) (UniProt O00329)
label: -1

Quick check: does CCn1ncc(-c2nc3c(O[C@@H]4CC[C@H](n5c(=O)[nH]c6ncccc65)C4)ncnc3n2C)c1C have IC50 under 70 nM?
-1

Quick check: does CCn1c(-c2cnc(C)nc2)nc2c(O[C@H]3CCN(C(=O)OC(C)(C)C)C3)ncnc21 have IC50 under 70 nM?
1

Quick check: does COc1ncc(-c2nc3c(O[C@H]4CCN(C(=O)OC(C)(C)C)C4)ncnc3n2C)cc1C have IC50 under 70 nM?
1

Quick check: does CCC(=O)N1CC[C@H](Oc2ncnc3c2nc(-c2cnn(-c4ccccc4)c2C)n3C)C1 have IC50 under 70 nM?
1

Quick check: does CCn1ncc(-c2nc3c(O[C@H]4CCN(C(=O)c5nccn5C)C4)ncnc3n2C)c1C have IC50 under 70 nM?
1

====

tested_system: UniProt O00329
assay_info: Enzyme Assay
pIC50: −log10 of the molar value.
The label depends only on pIC50: rule met if it is at least 8, rule not met if it is smaller.

Past entries and their recorded results:
mol_smiles: CCn1c(-c2cnc(C)nc2)nc2c(O[C@H]3CCN(C(=O)N4CCCCC4)C3)ncnc21
label: rule not met

mol_smiles: CCn1ncc(-c2nc3c(OC4CN(C(=O)OC(C)(C)C)C4)ncnc3n2C)c1C
label: rule not met

mol_smiles: CCn1c(-c2cnc(C)nc2)nc2c(O[C@H]3CCN(c4cc(C)ccn4)C3)ncnc21
label: rule met

Then this compound:
Could you verify whether the entry CCOC(=O)N1CC[C@H](Oc2ncnc3c2nc(-c2cnn(CC)c2C)n3C)C1 shows pIC50 of no less than 8?
rule not met

====

tested_system: PIK3CD (Human)
pIC50: −log10 of the molar value.
The label depends only on pIC50: YES if it is at least 8, NO if it is smaller.

Could you verify whether the entry CCn1ncc(-c2nc3c(O[C@H]4CCCN(C(=O)OC(C)(C)C)C4)ncnc3n2C)c1C shows pIC50 of no less than 8?
NO

Could you verify whether the entry CCC(=O)N1CC[C@H](Oc2ncnc3c2nc(-c2cncc(N)c2)n3C)C1 shows pIC50 of no less than 8?
YES

Could you verify whether the entry CCn1c(-c2ccc(OC)nc2)nc2c(O[C@H]3CCN(C(=O)C4CC(F)(F)C4)C3)ncnc21 shows pIC50 of no less than 8?
YES

Could you verify whether the entry CCC(=O)N1CC[C@H](Oc2ncnc3c2nc(-c2ccc(OC)c(C(F)(F)F)c2)n3C)C1 shows pIC50 of no less than 8?
YES

Could you verify whether the entry CCOC(=O)C(C)NC(=O)N1CC[C@H](Oc2ncnc3c2nc(-c2cnn(CC)c2C)n3C)C1 (some centres not stated) shows pIC50 of no less than 8?
NO

Could you verify whether the entry CCn1ncc(-c2nc3c(O[C@H]4CCN(c5nccc(-c6ccco6)n5)C4)ncnc3n2C)c1C shows pIC50 of no less than 8?
NO

====

Quick record of IC50 values for PIK3CD (Human) (UniProt O00329).
Number only, in µM; omit the unit.

API: value(readout=IC50, system=PIK3CD (Human) (UniProt O00329)) for record CCn1ncc(-c2nc3c(O[C@H]4CCN(C(=O)N[C@H](C)c5ccccc5)C4)ncnc3n2C)c1C
0.63

====

tested_system: PIK3CD (Human) (UniProt O00329)
Each entry below carries its recorded pIC50.
pIC50 field: float, defined as -log10 of concentration (mol/L).

Field: example entries. Status: answers known.
mol_smiles: CCOC(=O)N1CC[C@H](Sc2ncnc3c2nc(-c2cnn(CC)c2C)n3C)C1
tested_system: PIK3CD (Human) (UniProt O00329)
measured_parameter: pIC50
reported: 7.43

mol_smiles: CCC(=O)N1CC[C@H](Oc2ncnc3c2nc(-c2ccc(OC)c(C)c2)n3C)C1
tested_system: PIK3CD (Human) (UniProt O00329)
measured_parameter: pIC50
reported: 8.34

mol_smiles: CCC(=O)N1CC[C@H](Oc2ncnc3c2nc(Oc2ccc(OC)c(F)c2)n3C)C1
tested_system: PIK3CD (Human) (UniProt O00329)
measured_parameter: pIC50
reported: 6.92

mol_smiles: CCn1c(N(C)CCO)nc2c(O[C@H]3CCN(C(=O)OC(C)(C)C)C3)ncnc21
tested_system: PIK3CD (Human) (UniProt O00329)
measured_parameter: pIC50
reported: 6.08

mol_smiles: CCn1c(-c2cnc(C)nc2)nc2c(O[C@H]3CCN(C(=O)C4(N)CCC4)C3)ncnc21
tested_system: PIK3CD (Human) (UniProt O00329)
measured_parameter: pIC50
reported: 7.30

mol_smiles: CCn1ncc(-c2nc3c(O[C@H]4CCN(C(=O)c5cn(C)nc5C(F)(F)F)C4)ncnc3n2C)c1C
tested_system: PIK3CD (Human) (UniProt O00329)
measured_parameter: pIC50
reported: 7.17

mol_smiles: CCC(=O)N1CC[C@H](Oc2ncnc3c2nc(-c2cnc(OC)c(C)c2)n3CC)C1
tested_system: PIK3CD (Human) (UniProt O00329)
measured_parameter: pIC50
reported: 9.30

Note: attention shifts to another entry.
API: value(readout=pIC50, system=PIK3CD (Human) (UniProt O00329)) for record CCn1ncc(-c2nc3c(O[C@H]4CCN(C(=O)c5ccno5)C4)ncnc3n2C)c1C
8.33

====

Each entry below carries its recorded log10 of IC50.
tested_system: PIK3CD (Human) (UniProt O00329)
On a log10 scale: recorded IC50, unit nM.

Field: example entries. Status: answers known.
mol_smiles: CCn1ncc(-c2nc3c(O[C@H]4CCN(C(=O)c5nnsc5C)C4)ncnc3n2C)c1C
reported: 0.72
--
mol_smiles: CCNC(=O)N1CC[C@H](Oc2ncnc3c2nc(-c2cnc(C)nc2)n3CC)C1
reported: 1.28
--
mol_smiles: CCn1ncc(-c2nc3c(O[C@H]4CCN(C(=O)c5cc(C(F)(F)F)nn5C)C4)ncnc3n2C)c1C
reported: 1.41
--
mol_smiles: CCn1ncc(-c2nc3c(O[C@H]4CCN(C(=O)c5c[nH]nc5C(F)(F)F)C4)ncnc3n2C)c1C
reported: 1.32
--
mol_smiles: CCn1ncc(-c2nc3c(O[C@@H]4CCCN(C(=O)OC(C)(C)C)C4)ncnc3n2C)c1C
reported: 3.66

Note: attention shifts to another entry.
Name the reported log10 of IC50 value associated with the compound CCn1ncc(-c2nc3c(S(=O)(=O)[C@H]4CCN(C(=O)OC(C)(C)C)C4)ncnc3n2C)c1C
2.20

====

tested_system: PIK3CD (Human)
measured_parameter: log10 IC50 (log10 of the value in nM)
On a log10 scale: recorded IC50, unit nM.

molecule: CCn1c(-c2cnc(C)nc2)nc2c(O[C@H]3CCN(C(=O)[C@@H](N)C(C)C)C3)ncnc21
measured_parameter: log10 IC50
reported: 0.99
--
molecule: CCn1c(-c2cnc(C)nc2)nc2c(O[C@H]3CCN(C(=O)C4CCOC4)C3)ncnc21 (stereo partly specified)
measured_parameter: log10 IC50
reported: 0.76
--
molecule: CCN(C)C(=O)N1CC[C@H](Oc2ncnc3c2nc(-c2cnc(C)nc2)n3CC)C1
measured_parameter: log10 IC50
reported: 1.00
--
molecule: CCn1ncc(-c2nc3c(O[C@H]4CCN(C(=O)Oc5ccc6ccccc6c5)C4)ncnc3n2C)c1C
measured_parameter: log10 IC50
reported: 2.04

Note: attention shifts to another entry.
API: value(readout=log10 IC50, system=PIK3CD (Human)) for record CCn1ncc(-c2nc3c(O[C@H]4CCN(C(=O)c5nc(C)oc5C)C4)ncnc3n2C)c1C
0.86

====

tested_system: PIK3CD (Human) (UniProt O00329)
pIC50: −log10 of the molar value.
The label depends only on pIC50: TRUE if it is at least 8, FALSE if it is smaller.

compound: CCn1c(-c2cnc(C)nc2)nc2c(O[C@H]3CCN(C(=O)C4CC4)[C@@H]3C)ncnc21
label: TRUE
//
compound: CCn1c(-c2cnc(C)nc2)nc2c(O[C@H]3CCN(C(=O)C=C(C)C)C3)ncnc21
label: TRUE
//
compound: CCn1ncc(-c2nc3c(S[C@H]4CCN(c5ncnc6sccc56)C4)ncnc3n2C)c1C
label: TRUE
//
compound: CCC(=O)N1CC[C@H](Oc2ncnc3[nH]c(-c4cnn(CC)c4C)nc23)C1
label: FALSE
//
compound: Cn1c(-c2ccc(N3CCCC3)nc2)nc2c(O[C@H]3CCN(C(=O)OC(C)(C)C)C3)ncnc21
label: FALSE
//
compound: CCn1c(-c2ccnc(OC)c2)nc2c(O[C@H]3CCN(C(=O)C4CC4)C3)ncnc21
label: FALSE

Could you verify whether the entry CCn1ncc(-c2nc3c(O[C@H]4CCN(C(=O)c5[nH]ncc5C)C4)ncnc3n2C)c1C shows pIC50 of no less than 8?
TRUE

Could you verify whether the entry CCn1c(-c2cnc(OC)c(F)c2)nc2c(O[C@H]3CCN(C(=O)C(C)C)C3)ncnc21 shows pIC50 of no less than 8?
TRUE

Could you verify whether the entry CCn1ncc(-c2nc3c(O[C@H]4CCN(C(=O)Oc5ccc(OC)cc5)C4)ncnc3n2C)c1C shows pIC50 of no less than 8?
FALSE

Could you verify whether the entry CCn1c(-c2cnc(OC)c(F)c2)nc2c(O[C@H]3CCN(C(=O)C4CC(F)(F)C4)C3)ncnc21 shows pIC50 of no less than 8?
TRUE
